target: ACE2 (Homo sapiens, UniProt Q9BYF1)
Sequence (Q9BYF1 18-740): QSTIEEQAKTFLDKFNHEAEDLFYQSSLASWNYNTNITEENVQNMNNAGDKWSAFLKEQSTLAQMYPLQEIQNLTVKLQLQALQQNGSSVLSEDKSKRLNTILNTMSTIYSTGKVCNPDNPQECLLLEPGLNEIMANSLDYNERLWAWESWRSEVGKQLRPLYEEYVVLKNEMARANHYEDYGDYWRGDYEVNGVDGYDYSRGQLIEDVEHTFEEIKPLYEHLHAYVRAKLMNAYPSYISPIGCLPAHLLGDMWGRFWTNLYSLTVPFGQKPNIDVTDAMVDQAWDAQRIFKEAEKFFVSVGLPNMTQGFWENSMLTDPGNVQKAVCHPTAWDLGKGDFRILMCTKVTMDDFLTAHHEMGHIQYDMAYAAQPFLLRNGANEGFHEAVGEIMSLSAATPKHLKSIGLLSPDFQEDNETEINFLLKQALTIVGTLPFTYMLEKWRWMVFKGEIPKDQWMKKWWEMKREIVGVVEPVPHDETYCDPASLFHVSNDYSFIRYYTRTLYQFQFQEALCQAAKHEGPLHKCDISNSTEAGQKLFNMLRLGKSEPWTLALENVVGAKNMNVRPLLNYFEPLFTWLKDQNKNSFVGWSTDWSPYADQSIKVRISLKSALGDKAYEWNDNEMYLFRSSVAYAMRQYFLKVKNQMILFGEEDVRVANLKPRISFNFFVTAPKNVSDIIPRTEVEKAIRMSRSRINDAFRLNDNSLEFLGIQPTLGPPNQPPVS
parameter: IC50 (nM)
Field: numeric (nM). Do not append units.

Query: // fetch IC50 for CC(C)C[C@H](N[C@@H](Cc1cncn1Cc1cc(Cl)cc(Cl)c1)C(=O)O)C(=O)O ; system: ACE2 (Homo sapiens, UniProt Q9BYF1)
Response: 1.5

----------
target: ACE2 (Homo sapiens, UniProt Q9BYF1)
parameter: Kd (nM)
Field: numeric (nM). Do not append units.

Query: // fetch Kd for CC(C)C[C@H](N[C@@H](Cc1cncn1Cc1cc(Cl)cc(Cl)c1)C(=O)O)C(=O)O [MLN-4760] ; system: ACE2 (Homo sapiens, UniProt Q9BYF1)
Response: 702
